System: neuron 2A (rhinarial plate on flagellomere 2)
Test: single-sensillum electrophysiology, odor response of neuron 2A; also: key: 0, no response; +, >50 spikes/second; ++, >100 spikes/second; +++, >150 spikes/second
Format: cell-based, Diaphorina citri
Details: Table 1; odor diluted to 1%, 50 μL in cartridge
OUTCOME_MEASURE: odor response (frequency of action potentials during stimulus minus baseline), 2A
Give only the figure.

# COMPOUND, DATA_VALUE
measured = [
    ("CCCCCCCC=O [octanal]", 0),
]

# next compound below
Read the entry CC1=CC[C@H]2C[C@@H]1C2(C)C [(−)-α-pinene] and write its reported odor response (frequency of action potentials during stimulus minus baseline), 2A.
0

====

Tested on: neuron 4A (rhinarial plate on flagellomere 4)
Test: single-sensillum electrophysiology, odor response of neuron 4A
Type: cell-based, Diaphorina citri
Conditions: Table 1; odor diluted to 1%, 50 μL in cartridge
OUTCOME_MEASURE: odor response (frequency of action potentials during stimulus minus baseline), 4A
Give only the figure.

# MOLECULE, TARGET_OR_TEST_SYSTEM, DATA_VALUE
rows = [
    ("C=CCSSCC=C [allyl disulfide]", "neuron 4A (rhinarial plate on flagellomere 4)", 0),
    ("CCCC(=O)OC [methyl butyrate]", "neuron 4A (rhinarial plate on flagellomere 4)", 0),
    ("C=C1CC[C@H]2C[C@@H]1C2(C)C [(−)-β-pinene]", "neuron 4A (rhinarial plate on flagellomere 4)", 0),
    ("C=CCSSSCC=C [diallyl trisulfide]", "neuron 4A (rhinarial plate on flagellomere 4)", 0),
]

Read the entry C=CC(=C)CCC=C(C)C and write its reported odor response (frequency of action potentials during stimulus minus baseline), 4A.
0

Read the entry CC1=CC[C@H]2C[C@@H]1C2(C)C [(−)-α-pinene] and write its reported odor response (frequency of action potentials during stimulus minus baseline), 4A.
0

Read the entry CCCCCC(C)=O and write its reported odor response (frequency of action potentials during stimulus minus baseline), 4A.
0

Read the entry CCCSSCCC [dipropyl disulfide] and write its reported odor response (frequency of action potentials during stimulus minus baseline), 4A.
0

Read the entry CCCCCCCCO and write its reported odor response (frequency of action potentials during stimulus minus baseline), 4A.
0

Read the entry CCC/C=C/C=O [E2-hexenal] and write its reported odor response (frequency of action potentials during stimulus minus baseline), 4A.
0

Read the entry C=C/C(C)=C/CC=C(C)C and write its reported odor response (frequency of action potentials during stimulus minus baseline), 4A.
0

Read the entry C=C(C)[C@H]1CC=C(C)C(=O)C1 [(+)-carvone] and write its reported odor response (frequency of action potentials during stimulus minus baseline), 4A.
0

Read the entry CCC/C=C\CO and write its reported odor response (frequency of action potentials during stimulus minus baseline), 4A.
0

Read the entry CC(=O)OCC(C)C [isobutyl acetate] and write its reported odor response (frequency of action potentials during stimulus minus baseline), 4A.
0

Read the entry C=C1CC/C=C(\C)CC[C@@H]2[C@@H]1CC2(C)C and write its reported odor response (frequency of action potentials during stimulus minus baseline), 4A.
0

Read the entry CC1=CCC2C(C1)C2(C)C (stereo not drawn) and write its reported odor response (frequency of action potentials during stimulus minus baseline), 4A.
0

Read the entry O and write its reported odor response (frequency of action potentials during stimulus minus baseline), 4A.
0

Read the entry O=Cc1ccccc1 and write its reported odor response (frequency of action potentials during stimulus minus baseline), 4A.
0

Read the entry CC(C)=CCCC(C)CC=O (stereo not drawn) and write its reported odor response (frequency of action potentials during stimulus minus baseline), 4A.
0

Read the entry CCCCCCCCCC=O and write its reported odor response (frequency of action potentials during stimulus minus baseline), 4A.
0

Read the entry CC/C=C\CCO and write its reported odor response (frequency of action potentials during stimulus minus baseline), 4A.
0

All figures here come from patent US20180055032A1.
